Origin of the recorded values: ChEMBL document CHEMBL3885861

The entries below come with measured PL values attached.
# Species on record: Rattus norvegicus
# Assay method text: Open TG-GATES - Regimen: Single
# Format: toxicity, organism-based, Sprague-Dawley
# Design: regimen Single, gender Male, age 6 weeks
# Condition description: in vivo, po, 1000 mg/kg, 3 h, tissue Plasma, route gavage, dose level High
Answers without a unit are incomplete; give the number and then its unit.

# count of solved cases: 4
INSERT INTO assay_data (molecule, value) VALUES
  ('CC(C)OC(=O)C(C)(C)Oc1ccc(C(=O)c2ccc(Cl)cc2)cc1 [FENOFIBRATE]', '123.2 mg/dL'),
  ('NC(N)=Nc1nc(CSCCC(N)=NS(N)(=O)=O)cs1 [FAMOTIDINE]', '149.4 mg/dL'),
  ('COC1=CC(=O)C[C@@H](C)[C@]12Oc1c(Cl)c(OC)cc(OC)c1C2=O [GRISEOFULVIN]', '179.2 mg/dL'),
  ('CCOC(=O)CCC(=O)O[C@H]1[C@H](O[C@@H]2[C@@H](C)[C@H](O[C@H]3C[C@@](C)(OC)[C@@H](O)[C@H](C)O3)[C@@H](C)C(=O)O[C@H](CC)[C@@](C)(O)[C@H](O)[C@@H](C)C(=O)[C@H](C)C[C@@]2(C)O)O[C@H](C)C[C@@H]1N(C)C [ERYTHROMYCIN ETHYLSUCCINATE]', '143.8 mg/dL');

Inquiry: I am curious: what PL value has been reported for COc1ccc2[nH]c([S+]([O-])Cc3ncc(C)c(OC)c3C)nc2c1 (stereo not given) [OMEPRAZOLE] ?
Reply text: 140.8 mg/dL
